Target: Adenosylmethionine-8-amino-7-oxononanoate aminotransferase (Mycobacterium tuberculosis, UniProt P9WQ81)
Sequence (P9WQ81 whole entry): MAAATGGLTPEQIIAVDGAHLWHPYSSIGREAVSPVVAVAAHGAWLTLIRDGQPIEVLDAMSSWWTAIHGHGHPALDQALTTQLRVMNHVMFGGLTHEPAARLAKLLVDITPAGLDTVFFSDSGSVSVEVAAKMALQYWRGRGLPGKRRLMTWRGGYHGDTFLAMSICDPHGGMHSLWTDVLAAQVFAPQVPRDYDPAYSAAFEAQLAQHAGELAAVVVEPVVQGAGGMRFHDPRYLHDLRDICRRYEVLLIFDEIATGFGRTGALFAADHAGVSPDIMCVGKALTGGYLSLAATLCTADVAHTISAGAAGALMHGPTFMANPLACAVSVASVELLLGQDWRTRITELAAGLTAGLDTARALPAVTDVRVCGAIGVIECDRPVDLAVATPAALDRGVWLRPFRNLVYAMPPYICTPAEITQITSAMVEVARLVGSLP
Experiment: Mycobacterium tuberculosis BioA enzyme inhibitor Measured in Biochemical System Using Plate Reader - 2163-02_Inhibitor_Dose_CherryPick_Activity.
Type: functional, Mycobacterium tuberculosis UT205
The source made the active and inactive calls.
// AC50 lookup, one value per entry

# count of solved cases: 3
* O=C(Nc1ncc2c(n1)CC(c1cccc(Cl)c1)CC2=O)c1ccco1 (centres undefined) | 1.95 µM (active)
* CCOc1ccc(CCNC(=O)c2cnc(C)cn2)cc1OCC | 2.54 µM (active)
* CS(=O)(=O)N1[C@H](C(=O)NCc2ccncc2)[C@@H](CO)[C@@H]2Cn3c(ccc(C4=CCCCC4)c3=O)[C@@H]21 | 6.52 µM (active)

Attention now shifts to the item below.
Query: Note AC50 for the compound shown: CCc1nc2ccc(Br)cc2c(=O)n1-c1ccccc1C(F)(F)F
Reply: 0.966 µM (active)

---

assay: HepG2 cell cytotoxicity, dose response, cytotoxicity control for Shn3 inhibitor project, CellTiter-Glo, cherry-picked (AID 624134); type: functional, cell-based
Calls of active or inactive are those of the source.
Your response should consist of one outcome taken from 1 (active), -1 (inactive)

Study these solved cases before continuing.
• Cc1nc(SCC(=O)Nc2nc3ccccc3s2)c(C#N)c(C)c1C = -1
• CCC(NC(=O)Nc1nnc(C(F)(F)F)s1)(C(F)(F)F)C(F)(F)F = 1

Query: Which outcome was entered for the molecule Cc1cccc(N2CCN(C(=O)CSCc3c(C)noc3C)CC2)c1C in this test?
Reply: 1

Query: What did the test return for c1ccc(-c2cc3nc(NCC4CC4)nc(NCC4CCCCC4)c3s2)cc1 ?
Reply: 1

---

IC50 values, listed per item
target: Protein Tat (Human immunodeficiency virus type 1 group M subtype B (isolate HXB2)(HIV-1)); type: functional;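 also: tat binding to TAR RNA read out by fluorescence polarization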
Sequence (P04608 whole entry): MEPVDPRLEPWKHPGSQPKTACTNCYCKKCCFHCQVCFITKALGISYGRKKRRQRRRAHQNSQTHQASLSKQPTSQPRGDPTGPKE
Calls of active or inactive are those of the source.

Examples with their reported IC50 follow.
- COc1ccc(-c2nc3oc4cc(OC)ccc4c(=O)c3c(=O)n2Cc2ccco2)cc1: > 100 µM (active)
- COc1cc(CNc2ccc3[nH]c(O)nc3c2)cc(Cl)c1OCC(=O)NC(C)(C)C: 50.5 µM (inconclusive)
- O=[N+]([O-])c1cc2no[n+]([O-])c2cc1N1CCCCC1: > 100 µM (active)

Query: Name the recorded IC50 of the item CCc1ccc(CC)c(S(=O)(=O)Nc2ccc(C(=O)O)c(O)c2)c1 in your answer.
Reply: > 100 µM (active)

---

target: High affinity choline transporter 1 (Homo sapiens); experiment: CHT inhibitors, dose response, cell-based, 10-point CRC, membrane potential dye (AID 588401); type: functional;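 also: membrane potential dye fluorescence of choline-evoked depolarization via CHT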
Sequence (Q9GZV3 whole entry): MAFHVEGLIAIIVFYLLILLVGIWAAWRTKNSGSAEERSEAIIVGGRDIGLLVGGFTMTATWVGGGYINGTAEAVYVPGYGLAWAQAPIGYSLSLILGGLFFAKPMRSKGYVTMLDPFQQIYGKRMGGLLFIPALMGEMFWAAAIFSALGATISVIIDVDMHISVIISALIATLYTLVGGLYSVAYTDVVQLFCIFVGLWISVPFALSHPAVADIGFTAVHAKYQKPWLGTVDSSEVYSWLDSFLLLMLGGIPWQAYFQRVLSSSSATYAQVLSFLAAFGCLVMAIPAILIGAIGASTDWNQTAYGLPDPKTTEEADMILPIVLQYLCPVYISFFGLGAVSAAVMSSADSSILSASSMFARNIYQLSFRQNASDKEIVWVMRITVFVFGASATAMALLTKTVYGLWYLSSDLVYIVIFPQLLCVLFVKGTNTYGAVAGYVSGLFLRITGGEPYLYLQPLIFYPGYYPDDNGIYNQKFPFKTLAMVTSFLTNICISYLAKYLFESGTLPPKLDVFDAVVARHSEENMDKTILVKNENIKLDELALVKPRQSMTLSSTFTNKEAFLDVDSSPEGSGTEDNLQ
Activity calls are given as the source filed them.
observable: IC50

* Cn1c2c(c(=O)c3ccccc31)CCCC2 | 4.22 µM (active)

Query: Determine from records and report IC50 for Cc1ccccc1NC(=O)c1ccc(C)c(S(=O)(=O)NCc2cccnc2)c1
Reply: 5.77 µM (active)

Query: Note IC50 for the compound shown: c1cn(C23CC4CC(CC(C4)C2)C3)cn1
Reply: 3.57 µM (active)

Query: In one line, give reported IC50 of the entry COC(=O)Cn1ccc(N(C)C)c(C#N)c1=O .
Reply: 2.89 µM (active)

Query: Supply reported IC50 belonging to this compound: O=C(Nc1ccc(S(=O)(=O)Nc2ccccn2)cc1)c1ccc(Cl)cc1Cl
Reply: 3.81 µM (active)

Query: Answer with the recorded IC50 of CCc1cc(CNC(=O)c2ccc(OC)c(OC3CCN(C(C)C)CC3)c2)on1 only.
Reply: 0.597 µM (active)

---

Measured EC50 by item
Target: Heat shock factor protein 1 (Mus musculus, UniProt P38532)
Sequence (P38532 whole entry): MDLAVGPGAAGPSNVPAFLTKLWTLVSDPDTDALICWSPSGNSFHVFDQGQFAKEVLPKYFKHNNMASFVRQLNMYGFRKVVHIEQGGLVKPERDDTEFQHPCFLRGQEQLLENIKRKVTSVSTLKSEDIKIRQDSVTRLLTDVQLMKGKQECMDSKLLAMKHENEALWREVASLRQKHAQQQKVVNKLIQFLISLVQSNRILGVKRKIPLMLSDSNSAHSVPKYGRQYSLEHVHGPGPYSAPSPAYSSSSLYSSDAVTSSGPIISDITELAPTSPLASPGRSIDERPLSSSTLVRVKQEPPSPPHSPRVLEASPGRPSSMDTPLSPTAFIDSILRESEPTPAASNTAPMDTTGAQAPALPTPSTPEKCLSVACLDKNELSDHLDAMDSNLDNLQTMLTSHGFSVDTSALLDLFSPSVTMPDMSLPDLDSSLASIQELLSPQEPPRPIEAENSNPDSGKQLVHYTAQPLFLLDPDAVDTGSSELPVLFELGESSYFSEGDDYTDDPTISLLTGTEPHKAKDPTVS
Assay: HSF1 potentiators in luciferase reporter cells, confirmation, cell-based, NIH3T3, luminescence, dose retest (AID 435004);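 also: stress induced by proteasome inhibitor MG132 added 30 min after compound; luciferase reporter driven by HSF1 response element in NIH3T3 cells; actives raise luminescence as potentiators of the MG132 stress response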
Type: functional
The source made the active and inactive calls.

- CCC1CSC(Nc2ccc(C(=O)/C=C/c3cccc(C)c3)cc2)=N1 (stereo not drawn): 12.9 µM (active)
- CCN1C(=O)c2cccc3c(S(=O)(=O)Nc4ncccc4C)ccc1c23: > 260 µM (inactive)
- Cc1nc2c(=O)n(C)c(=O)n(C)c2nc1Cl: 14.3 µM (active)
- Cn1c(SCc2cccc(C(F)(F)F)c2)nnc1-c1ccco1: > 260 µM (inactive)
- C=C(CCC(=O)c1ccccc1)C(=O)c1ccccc1: 15 µM (active)

Query: Dear colleague, please send me the reported EC50 for Cc1cccc(CC(C)NC(=O)c2oc3c(F)cccc3c2C)n1 (stereo not drawn) when you can.
Reply: > 260 µM (inactive)

Query: Provide EC50 value for the following compound: CCOCCCN=C(S)Nc1ccc2nc(N3CCOCC3)cc(C)c2c1
Reply: > 260 µM (inactive)

Query: For the compound Cc1cc(C)n(S(=O)(=O)/C=C/c2ccccc2)n1 , report EC50.
Reply: 12.1 µM (active)

---

target: Metabotropic glutamate receptor 5 (Rattus norvegicus, UniProt P31424); assay: Identification of a glycine sulfonamide based non-MPEP site positive allosteric potentiator (PAM) of mGlu5 (calcium_assay).
Sequence (P31424 whole entry): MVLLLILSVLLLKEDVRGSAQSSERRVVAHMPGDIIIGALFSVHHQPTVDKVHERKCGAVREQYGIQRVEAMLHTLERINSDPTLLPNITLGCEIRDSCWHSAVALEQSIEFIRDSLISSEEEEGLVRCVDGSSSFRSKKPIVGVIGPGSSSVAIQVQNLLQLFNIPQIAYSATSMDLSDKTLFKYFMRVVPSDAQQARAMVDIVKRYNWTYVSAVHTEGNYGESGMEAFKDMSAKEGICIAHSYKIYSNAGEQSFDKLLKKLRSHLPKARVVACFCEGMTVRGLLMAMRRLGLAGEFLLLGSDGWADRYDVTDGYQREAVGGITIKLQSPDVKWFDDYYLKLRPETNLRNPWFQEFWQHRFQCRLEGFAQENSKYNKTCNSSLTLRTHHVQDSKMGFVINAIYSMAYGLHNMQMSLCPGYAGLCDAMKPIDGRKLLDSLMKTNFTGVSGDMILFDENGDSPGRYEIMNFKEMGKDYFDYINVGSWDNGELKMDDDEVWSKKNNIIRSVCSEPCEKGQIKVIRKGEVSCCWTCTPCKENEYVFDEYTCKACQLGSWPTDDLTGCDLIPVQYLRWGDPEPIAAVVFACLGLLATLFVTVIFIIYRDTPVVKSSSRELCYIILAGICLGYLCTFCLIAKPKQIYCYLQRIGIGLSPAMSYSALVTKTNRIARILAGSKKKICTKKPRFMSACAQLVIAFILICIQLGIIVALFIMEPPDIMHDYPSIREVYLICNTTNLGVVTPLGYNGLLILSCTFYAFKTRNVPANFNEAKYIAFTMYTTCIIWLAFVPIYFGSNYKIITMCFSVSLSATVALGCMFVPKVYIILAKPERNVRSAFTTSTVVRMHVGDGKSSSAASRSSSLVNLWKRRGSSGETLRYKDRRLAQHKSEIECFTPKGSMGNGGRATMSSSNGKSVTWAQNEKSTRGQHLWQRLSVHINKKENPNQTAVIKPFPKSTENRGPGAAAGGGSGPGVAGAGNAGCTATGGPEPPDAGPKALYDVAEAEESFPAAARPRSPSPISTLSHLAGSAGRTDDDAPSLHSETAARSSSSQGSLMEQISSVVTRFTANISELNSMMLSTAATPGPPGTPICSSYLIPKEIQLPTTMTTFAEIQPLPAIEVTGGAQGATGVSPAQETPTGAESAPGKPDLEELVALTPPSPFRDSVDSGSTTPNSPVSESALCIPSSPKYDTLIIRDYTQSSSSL
observable: EC50 (µM)
Give just the numeric value; µM need not be written.

Query: Fill in EC50 for record O=S(=O)(c1ccc(F)cc1)N1CCCC(c2nc(-c3ccc(F)cc3)no2)C1 (stereo unspecified)
Reply: 4.53

---

Molecular target: DNA repair protein RAD52 homolog (Homo sapiens, UniProt P43351)
Sequence (P43351 whole entry): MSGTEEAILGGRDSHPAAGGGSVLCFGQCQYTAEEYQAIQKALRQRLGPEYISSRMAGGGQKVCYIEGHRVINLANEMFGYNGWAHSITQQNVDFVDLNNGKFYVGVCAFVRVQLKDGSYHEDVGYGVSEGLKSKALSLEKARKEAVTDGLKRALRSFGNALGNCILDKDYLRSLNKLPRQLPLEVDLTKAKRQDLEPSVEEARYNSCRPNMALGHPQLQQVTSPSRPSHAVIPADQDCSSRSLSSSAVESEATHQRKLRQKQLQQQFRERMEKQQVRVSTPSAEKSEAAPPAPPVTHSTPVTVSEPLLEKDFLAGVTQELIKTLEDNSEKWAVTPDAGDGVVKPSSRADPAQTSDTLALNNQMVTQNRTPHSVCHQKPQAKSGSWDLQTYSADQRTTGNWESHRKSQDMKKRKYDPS
Assay type: functional, biochemical
Counter-ions that a name gives are not always drawn. Activity calls are given as the source filed them.
Measured AC50, listed per entry.

Below are worked cases with known answers.
• CN(C)CCCNc1nc2cc(-c3cccc(C(F)(F)F)c3)sc2c(=O)n1C = 7.9 µM (active)
• NC1(N2SC(S)=C3CCCC=C32)CCCCC1 = 12.1 µM (active)
• COc1ccc(NC(=O)c2ccc(-c3ccc(-c4noc(C)n4)cc3C)cc2)cc1N1CCN(C)CC1 = 7.71 µM (active)

Query: Give recorded AC50. C=CC[N@@+]12CC[C@]34c5ccccc5N5/C=C6\C7N(/C=C(\C53)[C@@H](C[C@@H]41)/C(=C/CO)C2)c1ccccc1[C@@]71CC[N@@+]2(CC=C)C/C(=C\CO)[C@@H]6C[C@@H]12 (stereo not given in full)
Reply: 16.5 µM (active)

Query: Please supply the value of reported AC50 for the item C=CCN1CCc2nc(N)sc2CC1 [TALIPEXOLE HYDROCHLORIDE]
Reply: 6.04 µM (active)
